Value source: ChEMBL document CHEMBL4266052

# Tested on: RBL-2H3
# Experiment notes: Cytotoxicity against rat RBL2H3 cells assessed as inhibition of cell proliferation up to 4000 nM after 24 hrs by CCK8 assay
# Format: cell-based
# Condition description: rbl-2h3, 24 h

{"Smiles code": "COc1ccnc(C(=O)N[C@H]2COC(=O)[C@H](Cc3ccccc3)[C@@H](OC(=O)CC(C)C)[C@H](C)OC2=O)c1O", "Activity": "Non-Toxic"}
{"Smiles code": "CC(C)C(=O)O[C@H]1[C@H](C)OC(=O)[C@@H](NC(=O)c2cccc(NC=O)c2O)COC(=O)[C@@H]1Cc1ccccc1", "Activity": "Non-Toxic"}
{"Smiles code": "COc1ccnc(C(=O)N[C@H]2COC(=O)[C@H](Cc3ccccc3)[C@@H](OC(=O)C(C)C)[C@H](C)OC2=O)c1O", "Activity": "Non-Toxic"}
{"Smiles code": "CCCC[C@H]1C(=O)OC[C@H](NC(=O)c2nccc(OC)c2O)C(=O)O[C@@H](C)[C@@H]1OC(=O)C(C)C", "Activity": "Non-Toxic"}
